Test system: SMN2 minigene mRNA (SMN2-A minigene) in HEK293H cells
MEASUREMENT PROTOCOL: SMN2 minigene mRNA splicing RT-qPCR assay in cultured cells
Assay type: cell-based, human
TEST CONTEXT: Homo sapiens, HEK293-H; concentration increasing full length SMN2 mRNA 1.5-fold relative to vehicle-treated cells; HEK293H cells with SMN2-A minigene, 24 hours, 7-point concentration data; read-out: EC1.5x for production of full length SMN2 mRNA
Procedure: The reverse transcription-quantitative PCR-based (RT-qPCR) assay is used to quantify the level of the full length SMN2 minigene mRNA containing SMN2 exon 7 in a HEK293H cell line stably transfected with said minigene and treated with a test compound. Protocol. […] The increase of SMN2 minigene FL mRNA relative to that in cells treated with vehicle control is determined from real-time PCR data using a modified ΔΔCt method (as described in Livak and Schmittgen, Methods, 2001, 25:402-8). […]
PARAMETER: EC (1.5-fold increase)

COMPOUND | READING
C[C@H]1CN(c2ccc3nc(-c4cccc(N(C)C)c4)cc(=O)n3c2)CCN1 [Compound 58] | 3 to 30 µM
CCc1nc(C)cn2nc(-c3cc(=O)n4cc(N5CCN(C)[C@@H](C)C5)cc(C)c4n3)cc12 [Compound 789] | < 0.1 µM
Cc1cn2nc(-c3cc(=O)n4cc(C5C[C@H](C)N[C@@H](C)C5)ccc4n3)cc2c(C)n1 (stereo partly shown) [Compound 800] | < 0.1 µM
CCc1nc2ccc(-c3cc(=O)n4cc(N5CCN[C@@H](C)C5)ccc4n3)cc2o1 [Compound 266] | 1 to 3 µM
Cc1nc2ccc(-c3cc(=O)n4cc(C5=CCN(C)CC5)ccc4n3)cc2o1 [Compound 303] | < 0.1 µM

## Task Under SMN2 minigene mRNA (SMN2-A minigene) in HEK293H cells, report EC (1.5-fold increase) for COc1ccc(-c2cc(=O)n3cc(N4C[C@H](O)[C@@H](N5CCCC5)C4)ccc3n2)cc1F [Compound 232]
## Result 1 to 3 µM

## Task Provide measured EC (1.5-fold increase) on SMN2 minigene mRNA (SMN2-A minigene) in HEK293H cells for Cc1cn2nc(-c3cc(=O)n4cc(N5CCN(C6CC6)CC5)ccc4n3)cc2c(C)n1 [Compound 341] please.
## Result 0.3 to 1 µM

## Task Look up and report EC (1.5-fold increase), with SMN2 minigene mRNA (SMN2-A minigene) in HEK293H cells as system, for Cc1nc2ccc(-c3cc(=O)n4cc(C5CCNCC5)ccc4n3)cc2s1 [Compound 424]
## Result < 0.1 µM

## Task Answer with EC (1.5-fold increase) of COc1ccc(-c2cc(=O)n3cc(N4C[C@@H]5CN(C(C)C)C[C@@H]5C4)ccc3n2)cc1F [Compound 281] measured for SMN2 minigene mRNA (SMN2-A minigene) in HEK293H cells.
## Result 0.1 to 0.3 µM

## Task System SMN2 minigene mRNA (SMN2-A minigene) in HEK293H cells. Read-out EC (1.5-fold increase). Item CCc1nc(C)cn2nc(-c3cc(=O)n4cc(N5CCN(CCF)[C@H](C)C5)ccc4n3)cc12 [Compound 666] . Report value.
## Result 0.1 to 0.3 µM
